ASSAY TARGET: UniProt:Q12809
Sequence (Q12809 whole entry, looked up): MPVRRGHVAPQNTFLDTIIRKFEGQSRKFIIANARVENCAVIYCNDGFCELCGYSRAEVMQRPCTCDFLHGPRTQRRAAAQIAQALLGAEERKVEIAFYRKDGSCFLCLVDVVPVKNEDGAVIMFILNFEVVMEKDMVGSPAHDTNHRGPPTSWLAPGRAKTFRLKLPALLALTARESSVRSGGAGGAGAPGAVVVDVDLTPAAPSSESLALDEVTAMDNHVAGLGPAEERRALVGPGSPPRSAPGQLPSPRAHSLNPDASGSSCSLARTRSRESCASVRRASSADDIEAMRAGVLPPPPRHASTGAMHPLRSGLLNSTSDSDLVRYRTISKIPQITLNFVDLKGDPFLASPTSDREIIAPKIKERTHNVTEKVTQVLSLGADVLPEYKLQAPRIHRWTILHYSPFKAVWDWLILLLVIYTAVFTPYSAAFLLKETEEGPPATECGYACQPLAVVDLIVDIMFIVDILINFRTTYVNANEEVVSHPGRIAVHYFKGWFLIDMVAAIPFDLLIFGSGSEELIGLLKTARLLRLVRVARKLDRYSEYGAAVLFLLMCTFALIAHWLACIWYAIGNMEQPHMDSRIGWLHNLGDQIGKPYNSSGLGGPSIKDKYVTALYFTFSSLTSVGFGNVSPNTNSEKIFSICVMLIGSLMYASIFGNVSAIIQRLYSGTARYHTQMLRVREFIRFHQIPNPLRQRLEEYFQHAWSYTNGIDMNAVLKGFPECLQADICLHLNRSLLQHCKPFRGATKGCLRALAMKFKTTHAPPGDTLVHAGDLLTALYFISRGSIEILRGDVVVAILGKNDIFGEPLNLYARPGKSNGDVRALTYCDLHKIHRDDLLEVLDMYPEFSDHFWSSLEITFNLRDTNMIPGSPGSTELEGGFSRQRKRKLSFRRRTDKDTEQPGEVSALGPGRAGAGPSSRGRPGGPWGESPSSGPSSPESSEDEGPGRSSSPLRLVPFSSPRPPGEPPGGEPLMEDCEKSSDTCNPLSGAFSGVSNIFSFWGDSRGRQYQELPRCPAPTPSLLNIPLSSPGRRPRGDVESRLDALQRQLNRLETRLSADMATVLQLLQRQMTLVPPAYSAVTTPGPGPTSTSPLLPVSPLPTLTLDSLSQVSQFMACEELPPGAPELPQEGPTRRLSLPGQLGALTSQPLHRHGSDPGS
ASSAY METHOD TEXT: blockers of hERG current – automated electrophysiology, CHO cells, Ionworks Quattro, primary screen (AID 493156)
CONDITION CONTEXT: automated patch clamp current, current change, at 1 µM, stronger effect = lower value
Threshold-based label: current change, negative = inhibition under -60% gives MET, current change, negative = inhibition not under -60% gives NOT MET.

INPUT: Bench note: check whether O=C(c1cccc(-c2ccco2)c1)N1CCCC(N2CCN(c3ccc(F)cc3)CC2)C1 (centres undefined) shows current change, negative = inhibition below -60%
OUTPUT: NOT MET

INPUT: For this compound, is current change, negative = inhibition lower than -60%? CCc1ccc(CN2CCC(Oc3ccc(C(=O)N4CCCC4)cc3)CC2)cc1
OUTPUT: MET

INPUT: Bench note: check whether Cc1ccccc1CN1CCN(C(=O)c2cc(-c3ccncc3)nc3ccccc23)CC1 shows current change, negative = inhibition below -60%
OUTPUT: NOT MET

INPUT: Bench note: check whether CCn1cc(CN2CCC(C(=O)Nc3cccc(-c4cccc(Cl)c4)c3)CC2)c(C)n1 shows current change, negative = inhibition below -60%
OUTPUT: NOT MET

INPUT: Confirm or reject: current change, negative = inhibition of CSc1cccc(CN2CCCC(CNC(=O)c3ccco3)C2)c1 (centres undefined) lies strictly below -60%
OUTPUT: NOT MET

INPUT: current change, negative = inhibition strictly < -60% for this compound? Cc1occc1C(=O)N1CCN(c2ccc([N+](=O)[O-])cc2)CC1
OUTPUT: NOT MET

INPUT: Just wondering, is current change, negative = inhibition of Cc1cc(C)n(CCCN2CCC(C(=O)Nc3cccc(-c4cccc(F)c4)c3)CC2)n1 below -60%?
OUTPUT: MET

INPUT: Below -60% on current change, negative = inhibition? Entry Cc1ccc(-n2ncc3c2CCCC3NC(=O)c2ccoc2)cc1C (centres undefined)
OUTPUT: MET

Each recorded value in this set is attributed to PubChem BioAssay AID493156.
